- TEST TARGET: HDAC6 enzyme (Homo sapiens, UniProt Q9UBN7)
- Construct: transducing full length HDAC6 gene into Sf-9 insect cells; GST; purchased SignalChem; host or cells: Sf-9 insect cells
- ASSAY EXPLANATION: HDAC6 enzyme inhibitory activity (HDAC-Glo I/II Assay kit)
- Assay type: biochemical
- APPLIED CONDITIONS: 10 μM; wells without enzyme = 100% inhibition; read-out: HDAC6 inhibitory rate (%) (10 μM)
MEASUREMENT LABEL: inhibition at 10 µM (%)
Reply numerically in %, unit not repeated.

Prompt: # inhibition at 10 µM lookup, item CC(C)(C)OC(=O)N[C@H]1COCC[C@H]1N1Cc2c(F)cc(-c3nnc(C(F)F)o3)cc2C1=O
Response: 99

Prompt: # inhibition at 10 µM lookup, item O=C(N[C@@H]1CCCC[C@H]1N1Cc2ncc(-c3nnc(C(F)F)o3)cc2C1=O)C1CCC1
Response: 101

Prompt: # inhibition at 10 µM lookup, item O=C1c2cc(-c3nnc(C(F)F)o3)cc(F)c2CN1C[C@H]1COCCN1S(=O)(=O)c1cccc(F)c1
Response: 98

Prompt: # inhibition at 10 µM lookup, item Cc1cc(C)n([C@@H]2CCCC[C@H]2N2Cc3ccc(-c4nnc(C(F)F)o4)cc3C2=O)n1
Response: 99

Prompt: # inhibition at 10 µM lookup, item O=C1c2cc(-c3nnc(C(F)F)o3)cc(F)c2CN1[C@@H]1COCC[C@H]1NC(=O)C1(C(F)(F)F)CC1
Response: 100

Prompt: # inhibition at 10 µM lookup, item O=C1c2cc(-c3nnc(C(F)F)o3)cc(F)c2CN1[C@@H]1COCC[C@H]1NC(=O)C(F)(F)C(F)(F)F
Response: 102

Prompt: # inhibition at 10 µM lookup, item C[C@](O)(C(=O)N[C@@H]1CCCC[C@H]1N1Cc2ccc(-c3nnc(C(F)F)o3)cc2C1=O)C(F)(F)F
Response: 98

* * *

- TEST TARGET: HDAC6 enzyme (Homo sapiens, UniProt Q9UBN7)
- Construct: transducing full length HDAC6 gene into Sf-9 insect cells; GST; purchased SignalChem; host or cells: Sf-9 insect cells
- Sequence (Q9UBN7 1-1215): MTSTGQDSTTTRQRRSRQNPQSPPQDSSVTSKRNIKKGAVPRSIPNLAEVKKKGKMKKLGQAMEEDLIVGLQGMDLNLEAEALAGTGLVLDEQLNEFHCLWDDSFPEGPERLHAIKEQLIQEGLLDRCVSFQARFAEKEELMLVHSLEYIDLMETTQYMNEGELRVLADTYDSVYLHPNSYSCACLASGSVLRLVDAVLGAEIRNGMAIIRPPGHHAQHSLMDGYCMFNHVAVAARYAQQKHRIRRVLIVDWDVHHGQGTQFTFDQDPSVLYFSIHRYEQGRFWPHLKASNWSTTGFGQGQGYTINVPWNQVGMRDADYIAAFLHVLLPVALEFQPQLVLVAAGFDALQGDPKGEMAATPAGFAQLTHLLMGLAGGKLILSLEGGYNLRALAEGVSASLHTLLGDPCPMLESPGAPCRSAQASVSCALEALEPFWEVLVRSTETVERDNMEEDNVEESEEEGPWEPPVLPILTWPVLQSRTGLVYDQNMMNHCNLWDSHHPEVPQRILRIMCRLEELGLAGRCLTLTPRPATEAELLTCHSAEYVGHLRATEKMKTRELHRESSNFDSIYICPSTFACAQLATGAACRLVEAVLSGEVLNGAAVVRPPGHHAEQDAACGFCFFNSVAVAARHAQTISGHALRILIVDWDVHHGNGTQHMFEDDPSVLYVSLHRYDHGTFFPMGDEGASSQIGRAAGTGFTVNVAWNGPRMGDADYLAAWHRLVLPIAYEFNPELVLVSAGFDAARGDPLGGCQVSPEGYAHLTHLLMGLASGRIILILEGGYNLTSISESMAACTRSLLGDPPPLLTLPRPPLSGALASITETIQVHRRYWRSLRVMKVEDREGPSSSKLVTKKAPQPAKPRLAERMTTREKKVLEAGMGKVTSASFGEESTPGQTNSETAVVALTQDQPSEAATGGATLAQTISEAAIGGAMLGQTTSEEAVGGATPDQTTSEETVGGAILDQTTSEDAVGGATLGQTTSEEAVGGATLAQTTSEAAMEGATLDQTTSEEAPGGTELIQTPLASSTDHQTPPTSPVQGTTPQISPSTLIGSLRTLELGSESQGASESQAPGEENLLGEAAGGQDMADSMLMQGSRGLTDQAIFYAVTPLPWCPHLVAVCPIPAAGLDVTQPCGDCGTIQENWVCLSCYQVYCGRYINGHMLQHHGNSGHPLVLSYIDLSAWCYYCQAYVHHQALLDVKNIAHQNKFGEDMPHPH
- ASSAY EXPLANATION: HDAC6 enzyme inhibitory activity (HDAC-Glo I/II Assay kit)
- Assay type: biochemical
- APPLIED CONDITIONS: 10 μM; wells without enzyme = 100% inhibition; read-out: HDAC6 inhibitory rate (%) (10 μM)
Please provide measured inhibition at 10 µM for the entries that follow.
Reply numerically in %, unit not repeated.

Prompt: # inhibition at 10 µM lookup, item O=C1c2cc(-c3nnc(C(F)F)o3)cc(F)c2CN1C[C@@H]1CCCN1C(=O)C1CC1 [Example 379]
Response: 97

Prompt: # inhibition at 10 µM lookup, item O=C1c2cc(-c3nnc(C(F)F)o3)ccc2CN1[C@@H]1CCCC[C@H]1NC(=O)C1(c2ccccc2)COC1 [Example 90]
Response: 100

Prompt: # inhibition at 10 µM lookup, item O=C1COCCN1[C@@H]1CCCC[C@H]1N1Cc2ccc(-c3nnc(C(F)F)o3)cc2C1=O [Example 30]
Response: 97

Prompt: # inhibition at 10 µM lookup, item O=C1c2cc(-c3nnc(C(F)F)o3)cc(F)c2CN1C1(CNS(=O)(=O)CC(F)(F)F)CCCCC1 [Example 371]
Response: 99
